Data origin: patent US10934295B2

# System: E. coli strain ATCC25922
# EXPERIMENT_NOTES: standard microdilution assay, minimum inhibitory concentration (MIC)
# Assay type: cell-based
# MEASUREMENT_PARAMETERS: Escherichia coli
Consider the following compounds and their measured MIC readings.

>  <RECORD_SMILES>
C[C@H](N)CCCc1cc(Cl)c(F)c(-c2cc3cn(-c4ccc([C@@H]5CNC[C@@H](CCNC(=N)N)O5)cc4)c(=O)nc3[nH]2)c1

>  <MIC>
≤ 16 µg/mL

$$$$
>  <RECORD_SMILES>
CSc1cc(-n2cc3cc(-c4cc(CCC[C@H](C)N)cc(Cl)c4F)[nH]c3nc2=O)ccc1CO[C@H](CCNC(=N)N)CNC(=N)N

>  <MIC>
≤ 16 µg/mL

$$$$
>  <RECORD_SMILES>
C[C@H](N)CCCc1cc(Cl)c(F)c(-c2cc3cn(-c4ccc([C@@H](NCCCNC(=N)N)C(F)(F)F)cc4)c(=O)nc3[nH]2)c1

>  <MIC>
≤ 16 µg/mL

$$$$
>  <RECORD_SMILES>
C[C@H](NCCCNC(=N)N)c1ccc(-n2cc3cc(-c4cc(CCC[C@@H](N)C(F)(F)F)cc(Cl)c4F)[nH]c3nc2=O)cc1

>  <MIC>
> 16 µg/mL

$$$$
>  <RECORD_SMILES>
C[C@H](N)CCCc1cc(Cl)c(F)c(-c2cc3cn(-c4ccc(CN[C@@H](C)CCNC(=N)N)c(N(C)C)c4)c(=O)nc3[nH]2)c1

>  <MIC>
≤ 16 µg/mL

$$$$
>  <RECORD_SMILES>
C[C@H](N)CCCc1cc(Cl)c(F)c(-c2cc3cn(-c4ccc(C(=O)N[C@H](CCNC(=N)N)CNc5ncc[nH]5)cc4)c(=O)nc3[nH]2)c1

>  <MIC>
≤ 16 µg/mL

$$$$
>  <RECORD_SMILES>
C=C[C@@H](CCNC(=N)N)NC(=O)c1ccc(-n2cc3cc(-c4cc(CCC[C@H](C)N)cc(Cl)c4F)[nH]c3nc2=O)cc1

>  <MIC>
≤ 16 µg/mL

$$$$
>  <RECORD_SMILES>
N=C(N)NCC[C@@H]1CSC[C@@H](c2ccc(-n3cc4cc(-c5cc(CCC[C@@H](N)C6CC6)cc(Cl)c5F)[nH]c4nc3=O)cc2)N1

>  <MIC>
≤ 16 µg/mL

$$$$
>  <RECORD_SMILES>
C[C@H](N)CCCc1cc(Cl)c(F)c(-c2cc3cn(-c4ccc(C(=O)N[C@@H](CO)CCNC(=N)N)cc4)c(=O)nc3[nH]2)c1

>  <MIC>
≤ 16 µg/mL

$$$$
>  <RECORD_SMILES>
C[C@H](N)CCCc1cc(Cl)c(F)c(-c2cc3cn(-c4ccc(C(=O)N[C@H](CCNC(=N)N)CNC(=N)N)cc4)c(=O)nc3[nH]2)c1

>  <MIC>
≤ 16 µg/mL

$$$$
>  <RECORD_SMILES>
C[C@H](N)CCCc1cc(Cl)c(F)c(-c2cc3cn(-c4ccc(CN[C@@H](C)CCNC(=N)N)c(CC(=O)O)c4)c(=O)nc3[nH]2)c1

>  <MIC>
> 16 µg/mL

$$$$
>  <RECORD_SMILES>
C[C@H](N)CCCc1cc(Cl)c(F)c(-c2cc3cn(-c4ccc([C@@H]5CNC[C@H](CCNC(=N)N)N5)cc4)c(=O)nc3[nH]2)c1

>  <MIC>
≤ 16 µg/mL

$$$$
